- System: HT29 colon
- ASSAY: NCI tumour cell line growth inhibition, 48 h; in the data active = GI50 below about 0.43 µM; inactive = the rest
Give your call using only these classes: active, inactive

[ask] What did the test return for CC(C)c1ccc(COCc2cc(CN3CCCC3)c(O)c3ncccc23)cc1 ?
[reply] inactive

[ask] What did the test return for O=C1Nc2ccccc2/C1=C/C(=N/c1nnc(-c2ccc(Cl)cc2)s1)c1ccccc1 ?
[reply] inactive

[ask] What did the test return for Cc1ccc(Cl)cc1Nc1nc(C(F)(F)F)ccc1C(N)=O ?
[reply] inactive

[ask] What did the test return for O=S(=O)(Nc1cccc(Cl)c1)c1ccc(-c2cnc(C3CC3)o2)cc1 ?
[reply] active

[ask] What did the test return for COC(=O)c1ccc2[nH]c(O)c(C(=Nc3ccc(N(C)C(=O)CN4CCN(C)CC4)cc3)c3cccc(OC)c3)c2c1 ?
[reply] inactive

[ask] What did the test return for C[C@H](Nc1ccc2c(c1)OCCn1cc(N3C(=O)OC[C@H]3C(F)F)nc1-2)C(N)=O ?
[reply] active

[ask] What did the test return for Cc1cc(Cl)ccc1Nc1nc(C(F)(F)F)ccc1C(=O)N/N=C/c1cccc(O)c1 ?
[reply] inactive

[ask] What did the test return for COc1cc(O)c2c3c(ccnc13)-c1ccccc1N2 ?
[reply] inactive

[ask] What did the test return for COc1ccc(OC)c(N(CCN2C(=O)c3ccccc3C2=O)C(=O)CCl)c1 ?
[reply] inactive

[ask] What did the test return for COc1cc2c(c(OC)c1OC)-c1ccc(SC)c(=O)cc1C(CC(=O)Oc1ccc(F)cc1)C2 (stereo unspecified) ?
[reply] active

[ask] What did the test return for COc1ccc(C(=O)N2N=C(c3ccc(Br)cc3)CC2c2cn(-c3ccccc3)nc2-c2ccccc2)cc1 (stereo unspecified) ?
[reply] inactive

---

- System: HT29 colon
- ASSAY: NCI tumour cell line growth inhibition, 48 h
EXPERIMENTAL READOUT: TGI

{"columns": ["MOLECULE", "EXPERIMENTAL READOUT", "RECORDED RESULT"],
 "data": [
  ["Cc1ccc(N=Nc2c(O)c(C(=O)O)cc3ccccc23)c(S(=O)(=O)O)c1", "TGI", "> 100 µM"],
  ["O=C(O)C1Cc2c([nH]c3ccccc23)C(CCCCO)N1 (stereo not given)", "TGI", "> 100 µM"],
  ["CCOP(=O)(OCC)/C(=C\\n1c(=S)[nH]c2cc(C)ccc21)C(=O)OC", "TGI", "> 100 µM"],
  ["CC(=O)Oc1c(C)cc2c(c1C)C(C)CN2C(C)=O (stereo not given)", "TGI", "> 100 µM"]
]}

[ask] Would you mind telling me what TGI value was observed for C=C1C(=O)O[C@H]2[C@H]1CC/C(COC(=O)NCc1ccc(Cn3c(=O)sn(CCCC)c3=O)cc1)=C\CC[C@@]1(C)O[C@@H]21 ?
[reply] 4.18 µM

---

- Tested on: DU-145 prostate
- ASSAY: NCI tumour cell line growth inhibition, 48 h
EXPERIMENTAL READOUT: TGI

{"columns": ["COMPOUND", "EXPERIMENTAL TARGET", "RECORDED RESULT"],
 "data": [
  ["CN(C)c1ccc2nc3ccc(=[N+](C)C)c([N+](=O)[O-])c-3sc2c1", "DU-145 prostate", "18.3 µM"],
  ["COc1ccc2nc3n[nH]c(N)c3nc2c1", "DU-145 prostate", "> 49.2 µM"],
  ["OC[C@H]1C[C@@H]2Cc3ccccc3N2N1", "DU-145 prostate", "> 100 µM"],
  ["CCc1nc(N)c2nc(-c3ccc(C#N)cc3)oc2n1", "DU-145 prostate", "> 100 µM"],
  ["CC1=NOC(C)(O)/C1=N/O (stereo unspecified)", "DU-145 prostate", "> 100 µM"]
]}

Let us move to another entry and its TGI.
[ask] Would you mind telling me what TGI value was observed for NC(N)=NCCCC(NC(=O)OCCCCCn1ccc(N)nc1=O)C(=O)O (stereo unspecified) ?
[reply] > 100 µM

---

- Tested on: TK-10 renal
- ASSAY: NCI tumour cell line growth inhibition, 48 h
EXPERIMENTAL READOUT: TGI

Study these solved cases before continuing.
{"columns": ["COMPOUND", "EXPERIMENTAL TARGET", "RECORDED RESULT"],
 "data": [
  ["CC(C)[C@@H](C)CC[C@@H](C)C1CC=C2[C@@H]3CCC4C[C@@H](O[Si](C)(C)C(C)(C)C)CC[C@]4(C)C3CC[C@@]21C (some centres undefined)", "TK-10 renal", "> 100 µM"],
  ["COc1ccc(-n2cnc3c(N)nc(N)nc32)cc1", "TK-10 renal", "> 100 µM"],
  ["CC(=O)Oc1ccc2c3c1[C@H]1O[C@H]1c1cccc(c1-3)[C@@H]1O[C@H]21", "TK-10 renal", "31.8 µM"],
  ["CC(C)(O)C1CC[C@]2(C)CC[C@]3(C)[C@H](CC[C@@H]4[C@@]5(C)CC[C@H](O)C(C)(C)[C@@H]5CC[C@]43C)[C@@H]12 (some centres undefined)", "TK-10 renal", "53.3 µM"]
]}

Field: TGI. Fill in for each record below.
1. COc1ccc2nc3n[nH]c(N)c3nc2c1
2. CC(C)NC(=O)OCc1c(COC(=O)NC(C)C)n(C)c2c1ccc1ccsc12
3. Cc1ccc(Oc2ccc(C(=O)c3cccc(C(=O)c4ccc(Oc5ccc(C)cc5)cc4)n3)cc2)cc1
4. CN(C)C(=S)NC(=S)Nc1ccc2ccccc2c1
5. N=c1c2c(=S)n(-c3ccccc3)c(=S)n(-c3ccccc3)c2nc(SCCCN2CCCCC2)n1-c1ccccc1

[reply]
1. > 75.7 µM
2. > 94.4 µM
3. > 100 µM
4. > 89.4 µM
5. 3.08 µM

---

- Tested on: COLO 205 colon
- ASSAY: NCI tumour cell line growth inhibition, 48 h
EXPERIMENTAL READOUT: GI50

Study these solved cases before continuing.
{"columns": ["COMPOUND", "EXPERIMENTAL TARGET", "RECORDED RESULT"],
 "data": [
  ["CC(=O)Oc1cn(-c2ccc(Cl)cc2)nc1C1=NN(C(C)=O)C(c2ccc(F)cc2F)O1 (stereo not given)", "COLO 205 colon", "42.7 µM"],
  ["COc1ccc2c(c1)C(=Nc1ccc(F)c(F)c1F)c1c-2c(Nc2ccc(F)c(F)c2F)nc2ccccc12", "COLO 205 colon", "38.8 µM"],
  ["N[C@@H]1CCCC[C@@H]1N.O=P([O-])([O-])CNCP(=O)([O-])[O-].[Pt+2]", "COLO 205 colon", "> 100 µM"]
]}

Field: GI50. Fill in for each record below.
1. COC(=O)c1oc2c(C(C)=O)c(OCCN3CCOCC3)c(OC)cc2c1C
2. C[C@H](Nc1ccc2c(c1)OCCn1cc(N3C(=O)OC[C@H]3C(F)F)nc1-2)C(N)=O

[reply]
1: > 100 µM; 2: 2.3 µM

---

OVCAR-5 ovarian measurements of GI50, listed per entry.

Field: GI50. Fill in for each record below.
1. COc1ccc2c3c([nH]c2c1)C(=O)c1nc(C)ccc1C3=O
2. O=C1/C(=C/c2ccc(Cl)cc2Cl)CN(S(=O)(=O)c2ccccc2)C/C1=C\c1ccc(Cl)cc1Cl
3. O=C1C(C(Nc2ccccc2)c2ccccc2)=C([O-])c2ccccc21.O=C1C(C(Nc2ccccc2)c2ccccc2)=C([O-])c2ccccc21.[Ni+2] (centres undefined)
4. N#C/C(=C\c1ccc2c(c1)OCO2)n1nnc2ccccc21
5. COc1ccc(OC)c(N(CCN2C(=O)c3ccccc3C2=O)C(=O)CCl)c1
6. COc1ccc2cnc(N)c(C#Cc3cc(C(=O)Nc4ccc(CN5CCN(C)CC5)c(C(F)(F)F)c4)cnc3C)c2c1
7. Cc1ccc(C2CC(c3cccc(Nc4ccncc4)c3)=NN2c2cc(Cl)cc(Cl)c2)cc1 (centres undefined)

[reply]
4420 nM
1020 nM
3550 nM
2220 nM
1420 nM
640 nM
1650 nM

Field: GI50. Fill in for each record below.
1. CN1CCN(CCOc2ccc(-c3cnc4c(-c5cccc(F)c5F)cnn4c3)cc2)CC1
2. COc1cc(O)c2c3c(ccnc13)-c1ccccc1N2

[reply]
1: 1990 nM; 2: 25300 nM

---

- Tested on: UACC-62 melanoma
- ASSAY: NCI tumour cell line growth inhibition, 48 h
EXPERIMENTAL READOUT: TGI

Study these solved cases before continuing.
{"columns": ["COMPOUND", "TGI"],
 "data": [
  ["Fc1cc(-c2csc3n[nH]c(=S)n23)c(Cl)cc1Cl", "48.4 µM"],
  ["CSc1ccc(NC(=O)C2CCCCC2C(=O)O)cc1 (stereo unspecified)", "> 100 µM"],
  ["CCCCCOc1ccc(Nc2c(O)c3c(c(O)c2Cl)C(=O)C=CC3=O)cc1", "> 10 µM"],
  ["CCN(C(C)=N)c1ccccc1", "> 100 µM"],
  ["NC(N)=NCCCC(NC(=O)OCCCCCn1ccc(N)nc1=O)C(=O)O (stereo unspecified)", "> 100 µM"]
]}

Field: TGI. Fill in for each record below.
1. N/N=C(\CCN1CCCC1)CC(c1ccccc1)c1c(O)c2ccccc2oc1=O (stereo unspecified)
2. Cn1ccnc1C(=O)/C=C/c1ccc(C(=O)Nc2ccc(F)cc2)cc1
3. COC(=O)C1=C(C(=O)OC)C2(C3C(SC)=CC(C)(C)CC3S1)N(Cc1ccccc1)CCN2Cc1ccccc1 (stereo unspecified)
4. CCOP(=O)(OCC)/C(=C\n1c(=S)[nH]c2cc(C)ccc21)C(=O)OC

[reply]
["> 100 µM", "4.86 µM", "> 100 µM", "> 100 µM"]

Field: TGI. Fill in for each record below.
1. COc1ccc(NC(C)=O)cc1N1C(=O)/C(=C\c2cccc(Oc3ccccc3)c2)S(=O)(=O)C1c1ccccc1 (stereo unspecified)
2. Cc1ccc2c(c1)C(=O)C(c1c(-c3[nH]c(=O)c4ccc(C)cc4c3O)c(O)c3ccccc3c1O)=NC2=O
3. O=C(O)c1ccc2nc(-c3ccc(OCCCCCOc4ccc(-c5nc6ccc(C(=O)O)cc6[nH]5)cc4)cc3)[nH]c2c1
4. Cc1nc2ccccc2c(=O)n1NC(=O)c1ccc(N)cc1

[reply]
1. > 100 µM
2. 3.79 µM
3. > 100 µM
4. > 100 µM
